Listing of recorded pEC50 by entry.
target: LXRα LBD (GST) (Homo sapiens, UniProt Q13133); construct: 5 nM LXRα LBD (GST); 10 nM LXRβ LBD (GST); purchased ThermoFisher Scientific PV4655; test: Time-resolved LXR FRET assay (LanthaScreen TR-FRET LXRα Coactivator Assay Kit); assay type: biochemical; settings: 5 nM LXRα LBD (GST), read after 6 h; R^2 of fit given; read-out: TR-FRET activity (EC50) LXRα
Sequence (Q13133 209-447 limits assumed): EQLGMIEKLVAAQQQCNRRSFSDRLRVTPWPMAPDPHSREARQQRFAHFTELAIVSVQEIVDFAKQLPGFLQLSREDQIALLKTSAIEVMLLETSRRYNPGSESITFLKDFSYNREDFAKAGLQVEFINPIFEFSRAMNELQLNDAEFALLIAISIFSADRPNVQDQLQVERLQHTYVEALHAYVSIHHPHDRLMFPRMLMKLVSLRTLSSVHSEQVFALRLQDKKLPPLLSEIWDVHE
Quick note: pEC50 means taking -log10 of the concentration in moles per liter.

{"compound": "O=C1C(Nc2ccc(N3CCNCC3)cc2)=C(c2ccccc2)C(=O)N1Cc1ccccc1", "experimental-system": "LXRα LBD (GST) (Homo sapiens, UniProt Q13133)", "pEC50": 5.90}
{"compound": "O=C1Cc2cc(NC3=C(c4ccccc4)C(=O)N(Cc4ccccc4)C3=O)ccc2N1", "experimental-system": "LXRα LBD (GST) (Homo sapiens, UniProt Q13133)", "pEC50": 6.86}
{"compound": "COc1ccc(NC2=C(c3ccccc3)C(=O)N(Cc3ccccc3)C2=O)cc1 [GSK3987 (3), reference compound]", "experimental-system": "LXRα LBD (GST) (Homo sapiens, UniProt Q13133)", "pEC50": 6.81}
{"compound": "O=C1C(Nc2ccc(O)cc2)=C(c2ccccc2)C(=O)N1Cc1ccccc1", "experimental-system": "LXRα LBD (GST) (Homo sapiens, UniProt Q13133)", "pEC50": 6.41}
{"compound": "COc1ccc(NC2=C(c3ccccc3)C(=O)N(CC3CCCCC3)C2=O)cc1", "experimental-system": "LXRα LBD (GST) (Homo sapiens, UniProt Q13133)", "pEC50": 5.71}

# next compound below
Query string: For the compound `CC(C)(C)N1C(=O)C(Nc2ccc(N3CCCCC3)cc2)=C(c2ccccc2)C1=O` , give its reported pEC50.
Result string: 7.44

###

Listing of recorded EC50 by entry.
biological target: LXRα LBD (GST) (Homo sapiens); construct: 5 nM LXRα LBD (GST); 10 nM LXRβ LBD (GST); purchased ThermoFisher Scientific PV4655; experiment: Time-resolved LXR FRET assay (LanthaScreen TR-FRET LXRα Coactivator Assay Kit); assay type: biochemical; conditions: 5 nM LXRα LBD (GST), read after 6 h; R^2 of fit given; read-out: TR-FRET activity (EC50) LXRα

Study these solved cases before continuing.
{"smiles-record": "O=C1NC(=O)C(c2ccccc2)=C1Nc1ccc(N2CCCCC2)cc1", "EC50": "> 3 µM"}
{"smiles-record": "COc1ccc(NC2=C(c3ccccc3)C(=O)N(Cc3ccc(C(C)(C)C)cc3)C2=O)cc1", "EC50": "> 3 µM"}
{"smiles-record": "COc1ccc(CNC2=C(c3ccccc3)C(=O)N(Cc3ccccc3)C2=O)cc1", "EC50": "> 3 µM"}

# next molecule below
Query string: For the molecule `COc1ccc(NC2=C(c3ccccc3)C(=O)N(Cc3ccc(C(F)(F)F)cc3)C2=O)cc1` , give its reported EC50.
Result string: > 3 µM

###

target: LXRα LBD (GST) (Homo sapiens, UniProt Q13133); construct: 5 nM LXRα LBD (GST); 10 nM LXRβ LBD (GST); purchased ThermoFisher Scientific PV4655; assay: Time-resolved LXR FRET assay (LanthaScreen TR-FRET LXRα Coactivator Assay Kit); format: biochemical; conditions: 5 nM LXRα LBD (GST), read after 6 h; R^2 of fit given; read-out: TR-FRET activity (EC50) LXRα
Listing of recorded EC50 by entry.
Number in nM, nothing else.

{"smiles-record": "COc1ccc(NC2=C(c3ccccc3)C(=O)N(Cc3ccc(F)cc3)C2=O)cc1", "unit-abbreviation": "nM", "meas-value": 768}
{"smiles-record": "COc1cc(NC2=C(c3ccccc3)C(=O)N(Cc3ccccc3)C2=O)cc(OC)c1", "unit-abbreviation": "nM", "meas-value": 737}
{"smiles-record": "NC1CCN(c2ccc(NC3=C(c4ccccc4)C(=O)N(Cc4ccccc4)C3=O)cc2)CC1", "unit-abbreviation": "nM", "meas-value": 630}
{"smiles-record": "COc1ccc(NC2=C(c3ccccc3)C(=O)N(C(C)(C)C)C2=O)cc1", "unit-abbreviation": "nM", "meas-value": 245}
{"smiles-record": "COc1ccc(NC2=C(c3ccccc3)C(=O)N(Cc3ccc(C)cc3)C2=O)cc1", "unit-abbreviation": "nM", "meas-value": 579}

Query string: For the compound `Cc1ccc(NC2=C(c3ccccc3)C(=O)N(Cc3ccccc3)C2=O)cc1` , give its reported EC50.
Result string: 825

Query string: For the compound `O=C1C(Nc2ccc(F)cc2)=C(c2ccccc2)C(=O)N1Cc1ccccc1` , give its reported EC50.
Result string: 335

Query string: For the compound `CN(C)c1ccc(NC2=C(c3ccccc3)C(=O)N(Cc3ccccc3)C2=O)cc1` , give its reported EC50.
Result string: 71

Query string: For the compound `O=C1C(Nc2ccccc2)=C(c2ccccc2)C(=O)N1Cc1ccccc1` , give its reported EC50.
Result string: 312

Query string: For the compound `O=C1C(Nc2ccc(N3CCOCC3)cc2)=C(c2ccccc2)C(=O)N1Cc1ccccc1` , give its reported EC50.
Result string: 35
